tested_system: ABL (Homo sapiens)
Construct: gene ABL1
Sequence (P00519 whole entry): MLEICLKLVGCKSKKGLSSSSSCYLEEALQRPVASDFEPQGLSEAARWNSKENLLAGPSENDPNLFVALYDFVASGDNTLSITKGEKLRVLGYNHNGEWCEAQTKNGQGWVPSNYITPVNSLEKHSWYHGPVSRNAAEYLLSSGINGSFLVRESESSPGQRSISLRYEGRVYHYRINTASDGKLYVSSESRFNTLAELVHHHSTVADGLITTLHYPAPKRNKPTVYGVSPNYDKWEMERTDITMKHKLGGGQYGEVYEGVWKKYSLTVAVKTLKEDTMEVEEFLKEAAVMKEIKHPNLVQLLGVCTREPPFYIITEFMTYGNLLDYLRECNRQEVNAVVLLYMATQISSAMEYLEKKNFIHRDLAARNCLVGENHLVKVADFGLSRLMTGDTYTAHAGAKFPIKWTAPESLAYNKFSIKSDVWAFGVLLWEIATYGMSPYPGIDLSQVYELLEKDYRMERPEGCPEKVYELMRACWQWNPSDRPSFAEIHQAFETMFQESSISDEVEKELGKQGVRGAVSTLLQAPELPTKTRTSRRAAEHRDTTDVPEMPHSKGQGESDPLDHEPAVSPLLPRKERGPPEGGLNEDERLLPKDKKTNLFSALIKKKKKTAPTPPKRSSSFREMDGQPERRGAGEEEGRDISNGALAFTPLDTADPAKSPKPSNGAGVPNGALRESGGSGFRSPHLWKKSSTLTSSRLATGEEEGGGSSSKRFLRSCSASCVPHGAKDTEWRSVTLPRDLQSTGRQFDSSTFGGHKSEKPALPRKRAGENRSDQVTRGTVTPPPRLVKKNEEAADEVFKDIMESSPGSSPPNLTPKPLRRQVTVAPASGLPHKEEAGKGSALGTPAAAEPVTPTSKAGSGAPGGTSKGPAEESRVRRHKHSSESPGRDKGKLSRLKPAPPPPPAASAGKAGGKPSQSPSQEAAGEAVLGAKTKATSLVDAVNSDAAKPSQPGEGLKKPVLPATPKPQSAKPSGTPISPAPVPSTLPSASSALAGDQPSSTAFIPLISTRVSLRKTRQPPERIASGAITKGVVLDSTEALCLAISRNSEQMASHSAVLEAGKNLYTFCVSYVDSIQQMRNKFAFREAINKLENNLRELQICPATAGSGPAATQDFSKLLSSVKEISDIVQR
assay_name: kinase inhibition IC50 (Invitrogen), following ProfilerPro kinase panel ([…] at […])
Type: biochemical
reported_property: IC50
Reply with the number, then its unit.

Report IC50 for Clc1ccnc2ccc(-c3ccccc3)cc12 [4p]
19.2 µM
